system: SN12C; assay: NCI tumour cell line growth inhibition, 48 h
Calls of active or inactive are those of the source. No stated cut-off is given here; in the data, active = GI50 up to about 1.1 µM and inactive = higher.
Assignment: determine reported GI50 for the given compounds.

Worked set:
NS(=O)(=O)c1ccc(NC(NC(=O)C(C(F)(F)F)C(F)(F)F)(C(F)(F)F)C(F)(F)F)cc1; > 100 µM (inactive)
Cc1ccc2c(c1)/C(=N/Nc1ccccc1[N+](=O)[O-])C(=O)N2; 3.82 µM (inactive)
CCCOC(=O)CCC(NC(=O)c1ccc(Nc2nc3ccccc3nc2-c2cccs2)cc1)C(=O)OCCC (stereo unspecified); > 100 µM (inactive)
C#CCOCn1cc(C)c(=O)[nH]c1=O; > 100 µM (inactive)
O=Cc1c(Br)[nH]c2ccccc12; > 100 µM (inactive)
Cc1ccc(S(=O)(=O)N/N=C2/C3CCC(C3)C2c2ccccc2)cc1 (stereo unspecified); > 100 µM (inactive)
Cc1c2ccccc2cc2nc3ccccc3n12; > 10 µM (inactive)
NCCCNC1(c2cc3ccccc3s2)CCCCC1; 10.5 µM (inactive)
O=C1C(c2c(O)[nH]c3ccc([N+](=O)[O-])cc23)=Nc2ccccc21; > 100 µM (inactive)
CCC1=CCN(c2cc(C)ccn2)OC1c1ccc(OC)cc1 (stereo unspecified); 26 µM (inactive)

Could you now consider this next compound?
Task: Requested field: GI50. Item: COc1ccc2cc(-c3ccc(OC)c(OC)c3)c(=O)oc2c1
Output: > 100 µM (inactive)

###

system: SN12C; experiment: NCI tumour cell line growth inhibition, 48 h
Active and inactive are the calls of the source. Cut-off read from the data, not from the text of the source: active = GI50 up to about 1.1 µM and inactive = higher.
result-type: GI50

List reported GI50 for each of these compounds:
1. O=C1N2CCc3c([nH]c4ccccc34)C23CC2CCCCC12S3 (stereo unspecified)
2. CN(CCO)c1nc(=O)c2c([nH]1)CCC2
3. Cc1cc2ccccc2n1CC(=O)N1CCCC1
4. COc1ccccc1-c1cc(O)c2c(C)cc(C)nc2n1
5. Cc1ccccc1NC(=O)CC(=O)N1N=C(N2c3ccccc3Sc3ccccc32)CC1c1ccccc1 (stereo unspecified)
6. Cc1c2c(n(CCc3ccccc3)c1C)N(C)N=C(C#N)S2(=O)=O
7. CCC(C(C)N1CC(=O)NC(=O)C1)N1CC(=O)NC(=O)C1 (stereo unspecified)

Output:
1. > 100 µM (inactive)
2. > 100 µM (inactive)
3. > 100 µM (inactive)
4. 70.1 µM (inactive)
5. > 100 µM (inactive)
6. > 100 µM (inactive)
7. 6.27 µM (inactive)

List reported GI50 for each of these compounds:
1. CCN1C(=O)/C(=C2\SC(c3ccccc3)(c3ccccc3)c3ccccc32)SC1=S
2. Cc1ccc(S(=O)(=O)NC(=O)Nc2nc(Cl)cc(Cl)n2)cc1
3. CCOC(=O)C1=C(Nc2ccccc2)OC/C1=N\NC(=O)Cc1ccccc1
4. CC1CCCCc2nc3c(c(=O)n21)CCCC3 (stereo unspecified)

Output:
> 100 µM (inactive)
> 100 µM (inactive)
> 50 µM (inactive)
> 100 µM (inactive)

###

Assignment: determine reported GI50 for the given compounds.
test system: DMS-273; test: NCI tumour cell line growth inhibition, 48 h
Activity calls are given as the source filed them. Rule as the data show it: active = GI50 up to about 1.1 µM and inactive = higher. Non-standard residues stand in square brackets, D forms with d. Residues, ends and D or L forms follow the SMILES beside them. ξ: configuration not given here. *: point of attachment. NMeF = CN[C@@H](Cc1ccccc1)C(=O)O; ξNMeV = CNC(C(=O)O)C(C)C; Boc = CC(C)(C)OC(=O)*; OBn = c1ccc(CO*)cc1

CC(C)C(C(=O)N1CCC[C@@H]1C(=O)OCc1ccccc1)N(C)C(=O)C(C(C)C)N(C)C(=O)[C@H](Cc1ccccc1)N(C)C(=O)[C@H](NC(=O)OC(C)(C)C)C(C)C (stereo not given in full) (Boc-[dV][NMeF][ξNMeV][ξNMeV][dP]-OBn); 42.9 µM (inactive)
COC1=CC(=O)c2ccccc2C1(CCC=C(C)C)C1=NC(C)(C)CO1 (stereo not given); 72.4 µM (inactive)
CSc1nc(NC(=O)O)c(N(C(C)=O)C(=O)O)c(=O)n1C; > 100 µM (inactive)
NC1=NS(=O)(=O)Nc2nc(-c3ccc(Cl)cc3)c(-c3ccc(Cl)cc3)nc21; > 100 µM (inactive)

Could you now consider this next compound?
Task: Requested field: GI50. Item: CCN(CC)CCCCC1CCN(CC(=O)N2c3ccccc3NC(=O)c3ccccc32)CC1
Output: > 100 µM (inactive)
